- Test system: HaCaT cells
- Protocol details: Cell Counting Kit (CCK)-8 cell viability / cytotoxicity assay
- Test settings: CCK-8 assay, 24 h, concentration values that did not result in cytotoxicity

Compound	Target entity	Cytotoxicity
C=CC(C)(C)c1c(O)cc(O)c2c(=O)c3cc(O)c(O)cc3oc12 [Compound 14, cudratricusxanthone L]	HaCaT cells	>20 µM
CC(C)=CCc1c(O)cc2c(c1O)C(=O)C[C@@H](c1ccc(O)cc1O)O2 [Compound 4, cudraflavanone B]	HaCaT cells	>20 µM
CC(C)=CCc1c(O)cc2oc(-c3ccc(O)cc3O)c(CC=C(C)C)c(=O)c2c1O [Compound 6, cudraflavone C]	HaCaT cells	>5 µM
C=CC(C)(C)c1c(O)cc(O)c2c(=O)c3c(CC=C(C)C)c(O)c(O)cc3oc12 [Compound 11, cudratricusxanthone A]	HaCaT cells	>5 µM
C=CC(C)(C)c1c(OC)cc2oc3cc(O)c(O)cc3c(=O)c2c1O [Compound 13]	HaCaT cells	>40 µM
O=C1c2c(O)cc(O)cc2O[C@H](c2ccc(O)cc2)[C@H]1O [Compound 1, dihydrokaempferol]	HaCaT cells	>80 µM
CC(C)=CCc1cc([C@H]2Oc3cc(O)c(CC=C(C)C)c(O)c3C(=O)C2O)c(O)cc1O (stereo partly shown) [Compound 3, cudraflavanone D]	HaCaT cells	>10 µM

Attribution: paper PMC8303187
